- Target of assay: T1, Peptide 4: Biotin-AGGGGSGGGGSGGGGSAAA-Tyr-acid (N-terminal biotin; C-terminal acid)
- T1 construct: Control peptide without PC
- T1 peptide: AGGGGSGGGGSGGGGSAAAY
- Experimental details: scFv ELISA
- Protocol: For ELISA analysis of scFv binding, 96-well polystyrene plates were coated with Peptide 1, 4, 5, 8 or 100 μL BSA (10 μg/mL) in PBS at 4° C. overnight. […] All plates were washed three times with PBS-Tween before 40 μL aliquots of PPE were added to assay plates along with 50 μL 10% BSA, and plates were incubated for 1 hour at room temperature. […] The amount of scFv bound to each well was quantitated from absorbance measurement at 450 nm (OD450).

Binder	OD450 (OD450)
PcOxP_DB03_H02 (scFv, V domains shown, scFv in periplasmic extract) VH: EVQLLESGGGLVQPGGSLRLSCAASGFTESDFYMEWVRQAPGKGLEWVAASRNKYNDYTTEYADSVKGRFTISRDNSKNTLYLQMNSLRAEDTAVYYCARDYYGSSYWYFDVWGQGTLVTVSS VL: DIVMTQSPDSLAVSLGERATINCTASESLYSSKHKVHYLAWYQQKPGQPPKLLIYGAQNRYIGVPDRFSGSGSGTDFTLTISSLQAEDVAVYYCAQFYSYPLTFGGGTKVEIK	0.05
PcOxP_DB04_C11 (scFv, V domains shown, scFv in periplasmic extract) VH: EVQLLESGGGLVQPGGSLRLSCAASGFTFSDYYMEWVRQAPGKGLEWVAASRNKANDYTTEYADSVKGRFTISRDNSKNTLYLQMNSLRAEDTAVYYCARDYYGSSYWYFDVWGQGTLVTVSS VL: DIVMTQSPDSLAVSLGERATINCTASESLYSSKHKVHYLAWYQQKPGQPPKLLIYGASHRQIGVPDRFSGSGSGTDFTLTISSLQAEDVAVYYCAQFYSYPLTFGGGTKVEIK	0.05
PcOxP_DB03_C04 (scFv, V domains shown, scFv in periplasmic extract) VH: EVQLLESGGGLVQPGGSLRLSCAASGFTFSDFYMEWVRQAPGKGLEWVAASRNKANDYTTEYADSVKGRFTISRDNSKNTLYLQMNSLRAEDTAVYYCARDYYGSSYWYNDVWGQGTLVTVSS VL: DIVMTQSPDSLAVSLGERATINCTASESLYSSKHKVHYLAWYQQKPGQPPKLLIYGASNRYIGVPDRFSGSGSGTDFTLTISSLQAEDVAVYYCAQFYTYPLTFGGGTKVEIK	0.04
